# System under test: Streptavidin (Streptomyces avidinii)
# Assay notes: streptavidin binders on small-molecule microarray, primary screen, artefact control for SMM compound annotation, biophysical, 635/667 nm fluorescence (AID 1147);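 also: signal reflects streptavidin binding to arrayed compounds as a control protein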
# Test conditions: streptavidin binding, higher = more signal
Some molecules, each annotated with its measured composite z-score.
Write no unit; give the number alone.

// composite z-score lookup, molecule = C/C=C\[C@@H](NCc1ccccc1Br)[C@@H](O)Cc1ccccc1 , result: -0.838

// composite z-score lookup, molecule = CC(C)NC(=O)[C@@H]1c2ccccc2C(=O)N(CC23CC4CC(CC(C4)C2)C3)[C@H]1c1ccc(CO)cc1 , result: 0.969

// composite z-score lookup, molecule = CO[C@H]1COC(=O)[C@@H]2CCCN2C(=O)CC=C[C@@H](C)[C@H](OC)COC(=O)CC=C[C@@H]1C , result: -0.689

// composite z-score lookup, molecule = CN1C(=O)[C@@]2(CCC(=O)OC(C)(C)C)N=C(c3ccc(OCCCO)cc3)O[C@H]2c2ccccc21 , result: -0.235

// composite z-score lookup, molecule = CN(C)c1ccc(C(O)C2C=CC3C(=O)N(c4ccccc4)C(=O)C3N2Nc2ccccc2F)cc1 (stereo not drawn) , result: 0.557

// composite z-score lookup, molecule = CCc1cc2c(nc1CC)CCN(CCC(C)=NOC[C@@H](O)[C@H]1O[C@@H]3OC(C)(C)O[C@@H]3[C@H]1O)C2 , result: 0.18

// composite z-score lookup, molecule = O=C1c2ccccc2[C@@]2(Cc3ccccc3N(C3CC3)C2=O)[C@H](c2ccc(CO)cc2)N1Cc1ccccc1C(F)(F)F , result: -1.07

// composite z-score lookup, molecule = COCC(=C=CC[C@@H](O)c1ccccc1OCCO)CCO , result: -0.174
